- assay-system: myostatin (Homo sapiens)
- Construct: To produce mature myostatin, the pooled promyostatin was enzymatically cleaved between the propeptide and mature myostatin C terminal; made in house
- Sequence (O14793 267-375): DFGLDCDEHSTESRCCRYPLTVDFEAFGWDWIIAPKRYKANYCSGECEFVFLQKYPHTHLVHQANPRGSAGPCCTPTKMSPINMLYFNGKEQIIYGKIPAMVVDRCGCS
- assay-protocol: C2C12 pMARE-luc cell based myostatin activity assay
- assay-setup: pMARE luc cell-based assay, myostatin 4 nM
- Description: The antagonists including the binding agents described herein can be tested for their ability to bind myostatin and inhibit or block myostatin activity. […] The resulting luciferase activity is determined, and a titration curve is generated from the series of peptibody dilutions. […] Equal numbers of the reporter cells (C2C12/pMARE clone #44) were plated into 96 well cultures. […] Myostatin activity was measured by determining the luciferase activity in the treated cultures. […]
Where no end group is shown, it is not given here.
measured-metric: IC50

Would you please look over these solved cases?
> print(dat)
                                  substance  reported.value
1  TN12-34: peptibody; peptide AHWCEQGPWRYGNICMAY        ~0.03 µM
2  Linear-20: peptibody; peptide YREMSMLEGLLDVLERLQHY       ~0.011 µM

Entry TN8-19: peptibody; peptide QGHCTRWPWMCPPY (cysteine pairing not given here; also: Fc fusion peptibody) — recorded IC50 = ~0.023 µM

---

- assay-system: myostatin (Homo sapiens, UniProt O14793)
- Construct: To produce mature myostatin, the pooled promyostatin was enzymatically cleaved between the propeptide and mature myostatin C terminal; made in house
- Sequence (O14793 267-375): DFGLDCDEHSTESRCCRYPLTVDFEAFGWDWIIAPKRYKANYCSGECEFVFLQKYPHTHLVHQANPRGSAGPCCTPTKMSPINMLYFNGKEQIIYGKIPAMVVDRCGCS
- assay-protocol: C2C12 pMARE-luc cell based myostatin activity assay
- assay-setup: affinity matured peptibodies; a range of values is given
measured-metric: IC50

Would you please look over these solved cases?
> print(dat)
                                  substance                              assay.system   reported.value
1  mTN8-19-34: affinity-matured peptibody; peptide IPAHGHCTRWPWMCPPQRWR  myostatin (Homo sapiens, UniProt O14793)  5.03 to 5.07 nM
2  mTN8-19-27: affinity-matured peptibody; peptide ADTQGHCTRWPWMCPPQHWF  myostatin (Homo sapiens, UniProt O14793)  4.84 to 4.92 nM
3  mTN8-19-24: affinity-matured peptibody; peptide VAEEWHCRRWPWMCPPQDWR  myostatin (Homo sapiens, UniProt O14793)  1.67 to 2.93 nM

Entry 1× mTN8-19-33: 1× affinity-matured peptibody; peptide PESQGHCTRWPWMCPPQGWG — recorded IC50 = 2.15 to 2.75 nM

---

- assay-system: myostatin (Homo sapiens, UniProt O14793)
- Construct: To produce mature myostatin, the pooled promyostatin was enzymatically cleaved between the propeptide and mature myostatin C terminal; made in house
- Sequence (O14793 267-375): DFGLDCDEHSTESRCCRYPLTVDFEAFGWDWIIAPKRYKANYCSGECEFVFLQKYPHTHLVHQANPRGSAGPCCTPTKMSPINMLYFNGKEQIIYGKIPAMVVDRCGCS
- assay-protocol: C2C12 pMARE-luc cell based myostatin activity assay
- assay-setup: affinity matured peptibodies; a range of values is given
measured-metric: IC50

> print(dat)
                                  substance   reported.value
1  1× mTN8-19-32: 1× affinity-matured peptibody; peptide VADHGHCTRWPWMCPPQGWG  1.84 to 3.35 nM
2  mTN8-19-9: affinity-matured peptibody; peptide TQTHAQCTRWPWMCPPQWEG    18.8 to 23 nM
3  mTN8-19-14: affinity-matured peptibody; peptide EFTQWHCTRWPWMCPPQRSQ  4.07 to 6.56 nM

Record mTN8-19 con1: affinity-matured peptibody; peptide VATQGQCTRWPWMCPPQGWG ; system myostatin (Homo sapiens, UniProt O14793); IC50 = 1 to 4.4 nM
